- Measured target: Nuclear receptor subfamily 1 group I member 2 (Homo sapiens)
- Sequence (O75469 whole entry): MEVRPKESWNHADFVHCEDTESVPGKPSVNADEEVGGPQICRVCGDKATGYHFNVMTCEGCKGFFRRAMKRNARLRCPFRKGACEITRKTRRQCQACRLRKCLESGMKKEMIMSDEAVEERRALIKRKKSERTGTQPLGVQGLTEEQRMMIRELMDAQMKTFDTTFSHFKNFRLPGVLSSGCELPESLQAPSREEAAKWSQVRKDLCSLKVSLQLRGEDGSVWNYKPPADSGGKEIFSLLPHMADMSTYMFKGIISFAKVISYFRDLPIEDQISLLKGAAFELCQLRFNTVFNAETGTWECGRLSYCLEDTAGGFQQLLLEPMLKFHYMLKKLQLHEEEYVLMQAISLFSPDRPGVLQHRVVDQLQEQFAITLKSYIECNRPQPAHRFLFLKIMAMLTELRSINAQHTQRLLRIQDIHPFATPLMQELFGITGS
pKd: −log10 of the molar value.
Experimental endpoint: pKd

* C/C(=C\CC/C(C)=C/CC[C@]1(C)CCc2cc(O)cc(C)c2O1)CC/C=C(\C)C(=O)O | 6.48
